target: FGFR2 (Homo sapiens (Human)); assay: FGFR2 Biochemical Caliper Assay
Test Readout: IC50

The following compounds have reported results that may help.
* C=C(C)C(=O)Nc1ccc(-c2c(-c3ccc(-c4ccon4)cc3)c3c(N)ncnc3n2C)cc1 | 250 to 1000 nM
* C=C(C)C(=O)Nc1ccc(-c2c(-c3ccc(S(=N)(=O)NC4CCCC4)cc3)c3c(N)ncnc3n2C)cc1 (stereo not drawn) | 1000 to 100000 nM

API: the following record is the query input.
[in] Look up IC50 for this compound: Cn1c(-c2ccc(NC(=O)C=C3CCCC3)cc2)c(-c2ccc(C(=O)N3CCCC3)cc2)c2c(N)ncnc21
[out] 1000 to 100000 nM

====

Record form. Attribute: pIC50. Fill in for each entry.
target: FGFR2 (Homo sapiens (Human)); test: FGFR2 Biochemical Caliper Assay
pIC50: −log10 of the molar value.

* C=CC(=O)N1CCC(n2cc(-c3c(-c4ccc(Cl)c(OC)c4)c4c(N)ncnc4n3C)cn2)CC1 | 6.00 to 6.60
* C=CC(=O)Nc1ccc(-c2c(-c3ccc4c(c3)CCCN4C)c3c(N)ncnc3n2C)cc1 | > 7.00
* C=CC(=O)N1CC=C(c2c(-c3ccc(Oc4cncc(C)c4)c(OC)c3)c3c(N)ncnc3n2C)CC1 | > 7.00
* Cn1c(-c2ccc(NC(=O)CC3=CCCC3)cc2)c(-c2ccc(C(=O)N3CCCC3)cc2)c2c(N)ncnc21 | 4.00 to 6.00
* C=CC(=O)N1CCC(c2c(-c3ccc(SC4CCCC4)cc3)c3c(N)ncnc3n2C)C1 (stereo not drawn) | > 7.00
* C=C(C)C(=O)Nc1ccc(-c2c(-c3ccc(Oc4ncc(Cl)cn4)c(OC)c3)c3c(N)ncnc3n2C)cc1 | 6.60 to 7.00

Dear colleague, could you send me pIC50 for each of the items below? Thanks.
1. C=C(C)C(=O)Nc1ccc(-c2c(-c3ccc(Cn4cccn4)cc3)c3c(N)ncnc3n2C)cc1
2. C=CC(=O)N1CCC(n2cc(-c3c(-c4ccc(Oc5ccc(C)cn5)cc4)c4c(N)ncnc4n3C)cn2)CC1
3. C=C(C)C(=O)Nc1ccc(-c2c(-c3ccc(S(=O)(=O)NC4CCCC4OC)cc3)c3c(N)ncnc3n2C)cc1 (stereo not drawn)
4. C=C(C)C(=O)Nc1ccc(-c2c(-c3ccc(C(=O)NCCCO)cc3)c3c(N)ncnc3n2C)cc1
5. C=CC(=O)N1CCCC(n2cc(-c3c(-c4ccc(Oc5cccc(C)n5)cc4)c4c(N)ncnc4n3C)cn2)C1 (stereo not drawn)

[out]
4.00 to 6.00
6.60 to 7.00
4.00 to 6.00
6.60 to 7.00
> 7.00

Okay, here is my list. What is pIC50 for each of these?
1. C=C(C)C(=O)Nc1ccc(-c2c(-c3cc(F)c(Oc4nccc(C)n4)cc3F)c3c(N)ncnc3n2C)cc1
2. C=C(C)C(=O)Nc1ccc(-c2c(-c3ccc(Oc4nccc(C)n4)c(F)c3)c3c(N)ncnc3n2C)c(CO)c1
3. C=C(C)C(=O)Nc1ccc(-c2c(-c3ccc(C(=O)NC(CF)CF)cc3)c3c(N)ncnc3n2C)cc1
4. C=C(C)C(=O)Nc1ccc(-c2c(-c3ccc(Oc4cccc(C)n4)cc3)c3c(N)ncnc3n2C)nc1
5. C=CC(=O)N1CCC(c2c(-c3cnn(C4CNC4)c3)c3c(N)ncnc3n2C)C1 (stereo not drawn)

[out]
1. > 7.00
2. > 7.00
3. > 7.00
4. > 7.00
5. 6.00 to 6.60

====

biological target: FGFR2 (Homo sapiens (Human), UniProt P21802); test: Biochemical FGFR2 Caliper assay
Sequence (P21802 22-821): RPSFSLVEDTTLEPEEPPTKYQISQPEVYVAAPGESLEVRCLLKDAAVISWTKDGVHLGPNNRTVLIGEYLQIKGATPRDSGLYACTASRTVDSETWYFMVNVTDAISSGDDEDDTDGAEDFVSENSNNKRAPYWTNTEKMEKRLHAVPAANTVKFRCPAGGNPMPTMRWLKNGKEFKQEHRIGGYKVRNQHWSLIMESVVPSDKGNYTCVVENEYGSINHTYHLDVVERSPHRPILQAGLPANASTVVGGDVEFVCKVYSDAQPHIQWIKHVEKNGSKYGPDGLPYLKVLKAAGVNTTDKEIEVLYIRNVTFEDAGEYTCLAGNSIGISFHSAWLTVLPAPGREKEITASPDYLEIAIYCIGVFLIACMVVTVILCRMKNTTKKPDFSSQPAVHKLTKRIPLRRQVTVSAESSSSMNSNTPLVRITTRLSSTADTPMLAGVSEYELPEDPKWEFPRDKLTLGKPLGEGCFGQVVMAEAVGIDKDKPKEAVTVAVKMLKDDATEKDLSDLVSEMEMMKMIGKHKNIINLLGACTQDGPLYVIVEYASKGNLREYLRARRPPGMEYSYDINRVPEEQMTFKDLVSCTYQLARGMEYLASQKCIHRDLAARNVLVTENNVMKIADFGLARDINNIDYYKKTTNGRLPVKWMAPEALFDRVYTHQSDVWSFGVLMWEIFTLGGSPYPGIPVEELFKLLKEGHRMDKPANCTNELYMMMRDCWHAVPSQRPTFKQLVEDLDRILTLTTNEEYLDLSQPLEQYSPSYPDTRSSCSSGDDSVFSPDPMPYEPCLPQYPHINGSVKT
Test Readout: IC50

Illustrative cases are given below, each with its answer.
• C=CC(=O)N[C@@H]1CCN(c2cccc(-c3c(-c4ccc(Oc5cccc(C)n5)cc4)c4c(N)ncnc4n3C)c2)C1 (single isomer, unassigned) = 250 to 1000 nM
• C#Cc1ccc(-c2c(C3=CC[C@@H](C(=O)N4CCC[C@@H]4C#C)CC3)c3c(N)ncnc3n2C)c(C)n1 (single isomer, unassigned) = < 100 nM
• C=C(C)C(=O)Nc1ccc(-c2c(-c3ccc(OCc4ccccn4)c(F)c3)c3c(N)ncnc3n2C)cc1 = 1000 to 100000 nM

Batch request: IC50 for each of the following compounds.
1. C=CC(=O)N1C[C@@H](O)[C@@H](c2c(-c3ccc(Oc4cccc(C)n4)cc3)c3c(N)ncnc3n2C)C1
2. C#Cc1nc2cc(-c3c(-c4ccc(Oc5nccc(C)n5)c(F)c4)c4c(N)ncnc4n3C)ccc2n1C
3. C=CC(=O)Nc1ccc(-c2[nH]c3ncnc(N)c3c2-c2ccc(Oc3ccn(C)n3)cc2)cc1
4. C=C(C)C(=O)Nc1ccc(-c2c(-c3ccn4ncnc4c3)c3c(N)ncnc3n2C)cc1
5. COC(=O)/C=C/CNc1ccc(-c2c(-c3ccc(Oc4nccc(C)n4)c(F)c3)c3c(N)ncnc3n2C)cc1
6. Cc1ccnc(Oc2ccc(-c3c(-c4ccc(NCC5CO5)cc4)n(C)c4ncnc(N)c34)cc2)n1 (centres unmarked)
7. C=C(F)C(=O)Nc1ccc(-c2c(-c3ccc(-c4noc(C5CC5)n4)cc3)c3c(N)ncnc3n2C)cc1

[out]
1: 250 to 1000 nM; 2: < 100 nM; 3: 250 to 1000 nM; 4: 1000 to 100000 nM; 5: < 100 nM; 6: 1000 to 100000 nM; 7: 100 to 250 nM

Required: IC50, one value per compound below.
1. C=C(C)C(=O)Nc1ccc(-c2c(-c3cccc(O)c3)c3c(N)ncnc3n2C)cc1
2. C#Cc1cc(C)c(-c2c(C3=CC[C@H](C(=O)N4CCCC4=O)CC3)c3c(N)ncnc3n2C)cn1 (single isomer, unassigned)
3. C#Cc1ncc(-c2c(C3=CC[C@@H](C(=O)N4CCCC4)CC3)c3c(N)ncnc3n2C)c(C)n1
4. C=C(C)C(=O)Nc1ccc(-c2c(-c3ccc(-c4noc(C5CC5)n4)c(N)c3)c3c(N)ncnc3n2C)cc1

[out]
1: 250 to 1000 nM; 2: 100 to 250 nM; 3: < 100 nM; 4: 1000 to 100000 nM

Give one value of IC50 per listed compound.
1. C#Cc1cc(C)c(-c2c(C3=CC[C@@H](C(=O)N4CCCC4)CC3)c3c(N)ncnc3n2C)cn1 (single isomer, unassigned)
2. C=C(C)c1ccc(-c2c(-c3ccc4nn[nH]c4c3)c3c(N)ncnc3n2C)cn1

[out]
1: < 100 nM; 2: 250 to 1000 nM

Quick request: IC50 for each listed item, please.
1. C#Cc1cc(C)c(-c2c(-c3ccc(Oc4nccc(C)n4)c(F)c3)c3c(N)ncnc3n2C)cn1 [Example 1439]
2. C#Cc1ncc(-c2c(-c3ccc(Oc4nccc(C)n4)c(F)c3)c3c(N)ncnc3n2C)c(C)c1OC
3. C=C(C)C(=O)Nc1ccc(-c2c(-c3cc(-c4ccccc4)cs3)c3c(N)ncnc3n2C)cc1
4. C=C(C)C(=O)Nc1ccc(-c2c(-c3ccc(C(=O)N[C@H]4C[C@H](F)C4)c(OC)c3)c3c(N)ncnc3n2C)cc1

[out]
< 100 nM
< 100 nM
250 to 1000 nM
< 100 nM

====

Consider the following compounds; for each one, report its pIC50.
molecular target: FGFR2 (Homo sapiens (Human)); assay: Biochemical FGFR2 Caliper assay
pIC50: −log10 of the molar value.

Sample records with pIC50:
• C#Cc1ncc(-c2c(-c3ccc(Oc4nccc(C)n4)c(F)c3)c3c(C)ncnc3n2C)c(C)n1 = > 7.00
• C=C(C)C(=O)Nc1ccc(-c2c(-c3ccc(C(=O)N[C@H]4C[C@H](F)C4)c(OC(F)F)c3)c3c(N)ncnc3n2C)cc1 = 4.00 to 6.00
• C=C1CCN(c2ccc(-c3c(-c4ccc(Oc5nccc(C)n5)c(F)c4)c4c(N)ncnc4n3C)cc2)C1=O = > 7.00
• C#Cc1ccc2cc(-c3c(-c4ccc(Oc5nccc(C)n5)c(F)c4)c4c(N)ncnc4n3C)cnc2n1 = > 7.00
• C#Cc1nc2cc(-c3c(C4=CC[C@H](C(=O)N5CCC[C@H]5COC)CC4)c4c(N)ncnc4n3C)ccc2[nH]1 = > 7.00
• C=CC(=O)Nc1ccc(-c2c(-c3ccc(Oc4nccc(C)n4)cc3)c3c(N)ncnc3n2C)c(Cl)c1 = > 7.00
• COCC#Cc1ccc2cc(-c3c(-c4ccc(Oc5nccc(C)n5)c(F)c4)c4c(N)ncnc4n3C)ccc2n1 = > 7.00
• C#Cc1cc(C(F)F)c(-c2c(-c3ccc(Oc4nccc(C)n4)c(F)c3)c3c(N)ncnc3n2C)cn1 = > 7.00

Return reported pIC50 values for all items listed beneath this line.
1. C=CC(=O)N1CCC(c2cn3ncnc(N)c3c2-c2ccc(Oc3cccc(C)n3)cc2)C1 (stereo not drawn)
2. C=C(C)C(=O)Nc1ccc(-c2c(C#Cc3cc(OC)cc(OC)c3)c3c(N)ncnc3n2C)cc1
3. C=C(C)C(=O)Nc1ccc(-c2c(-c3ccc4c(c3)CO[C@H]4c3cccc(C)n3)c3c(N)ncnc3n2C)cc1 (single isomer, unassigned)
4. Cn1c(-c2ccc(NC(=O)CCl)cc2)c(C2=CC[C@@H](C(=O)N3CCCC3)CC2)c2c(N)ncnc21 (single isomer, unassigned)
5. C=C(C)C(=O)Nc1ccc(-c2c(-c3ccc(C(=O)N4CCCCC4)cc3)c3c(N)ncnn3c2CO)cc1
6. C=C(C)C(=O)Nc1ccc(-c2c(C3=CC[C@@]4(CC3)Cc3ccccc3C4=O)c3c(N)ncnc3n2C)cc1 (single isomer, unassigned)
7. C=CC(=O)N1CCC(n2cc(-c3c(-c4ccc(C(=O)NCC(C)(C)OC)cc4)c4c(N)ncnc4n3C)cn2)CC1
8. C=C1CCN(c2ccc(-c3c(-c4ccc(Oc5nccc(C)n5)cc4)c4c(N)ncnc4n3C)c(C)c2)C1=O

[out]
1. 4.00 to 6.00
2. 4.00 to 6.00
3. 6.60 to 7.00
4. > 7.00
5. > 7.00
6. 4.00 to 6.00
7. 4.00 to 6.00
8. > 7.00

Please report pIC50 for every entry that follows.
1. C=C(C)C(=O)Nc1ccc(-c2c(C3=CC[C@@H](C(=O)N4CCCC4)CC3)c3c(N)ncnc3n2C)c(Cl)c1
2. C=C(C)C(=O)Nc1ccc(-c2c(C3=CC[C@H](C(=O)N4CCCC45COC5)CC3)c3c(N)ncnc3n2C)c(C)c1 (single isomer, unassigned)
3. C#Cc1ccc(-c2c(-c3ccc(Oc4nccc(C)n4)cc3F)c3c(N)ncnc3n2C)c(C)n1
4. C=CC(=O)N1CC=C(c2c(-c3ccc(Oc4cccc(C)n4)cc3)c3c(N)ncnc3n2C)[C@@H]1C (single isomer, unassigned)
5. C#Cc1cc(C)c(-c2cn3ncnc(N)c3c2C2=CC[C@@H](C(=O)N3CCC[C@H]3C)CC2)cn1

[out]
4.00 to 6.00
4.00 to 6.00
> 7.00
> 7.00
6.00 to 6.60
